Tested on: Staphylococcus haemolyticus
Assay: MIC of baseline clinical isolates (Example 8)
Assay type: cell-based
Settings: Staphylococcus haemolyticus baseline isolates (N′ = 1), central laboratory, mITT
Below, each of the compounds is paired with its reported n (% resistant) value.

Consider the reported n (% resistant) for these compounds:
CC1(C)S[C@@H]2[C@H](NC(=O)[C@H](N)c3ccc(O)cc3)C(=O)N2[C@H]1C(=O)O.O=C(O)[C@H]1/C(=C/CO)O[C@@H]2CC(=O)N21
0 (0.0) n (%)
Cc1onc(-c2ccccc2)c1C(=O)N[C@@H]1C(=O)N2[C@@H]1SC(C)(C)[C@@H]2C(=O)O
1 (100.0) n (%)
CN(C)c1ccc(O)c2c1C[C@H]1C[C@H]3[C@H](N(C)C)C(O)=C(C(N)=O)C(=O)[C@@]3(O)C(O)=C1C2=O
0 (0.0) n (%)
CC1(C)S[C@@H]2[C@H](NC(=O)[C@H](N)c3ccccc3)C(=O)N2[C@H]1C(=O)O
0 (0.0) n (%)
CCC[C@@H]1C[C@@H](C(=O)N[C@@H]([C@H]2O[C@H](SC)[C@H](O)[C@@H](O)[C@H]2O)[C@H](C)Cl)N(C)C1
1 (100.0) n (%)

Exercise: Please give the measured n (% resistant) for this compound: COc1cc(Cc2cnc(N)nc2N)cc(OC)c1OC.Cc1cc(NS(=O)(=O)c2ccc(N)cc2)no1
Key: 10.0 n (%)

Exercise: Fill in the blank: the reported n (% resistant) of C[C@H]1COc2c(N3CCN(C)CC3)c(F)cc3c(=O)c(C(=O)O)cn1c23 is ____.
Key: 1 (100.0) n (%)

Exercise: // n (% resistant) lookup, key: CC(=O)NC[C@H]1CN(c2ccc(N3CCOCC3)c(F)c2)C(=O)O1
Key: 0 (0.0) n (%)

----------
Tested on: vancomycin-intermediate Staphylococcus aureus
Assay: Broth microdilution MIC (Example 6)
Type: cell-based
Settings: S. aureus isolate NRS 18
MIC listing for selected compounds.
Dear colleague, please return just the value in µg/mL, with no unit written.

CCCCCCCCCC(=O)N[C@@H](Cc1c[nH]c2ccccc12)C(=O)N[C@H](CC(N)=O)C(=O)N[C@@H](CC(=O)O)C(=O)N[C@@H]1C(=O)NCC(=O)N[C@@H](CCCN)C(=O)N[C@@H](CC(=O)O)C(=O)N[C@H](C)C(=O)N[C@@H](CC(=O)O)C(=O)NCC(=O)N[C@H](CO)C(=O)N[C@@H]([C@H](C)CC(=O)O)C(=O)N[C@@H](CC(=O)c2ccccc2N)C(=O)O[C@@H]1C [DAP]
0.5
CC(=O)NC[C@H]1CN(c2ccc(N3CCOCC3)c(F)c2)C(=O)O1 [LZD]
1

// moving on: another record for MIC
Exercise: Fill in the blank: the reported MIC of CN[C@H](CC(C)C)C(=O)N[C@H]1C(=O)N[C@@H](CC(N)=O)C(=O)N[C@H]2C(=O)N[C@H]3C(=O)N[C@H](C(=O)N[C@H](C(=O)O)c4cc(O)cc(O)c4-c4cc3ccc4O)[C@H](O)c3ccc(c(Cl)c3)Oc3cc2cc(c3O[C@@H]2O[C@H](CO)[C@@H](O)[C@H](O)[C@H]2O[C@H]2C[C@](C)(N)[C@H](O)[C@H](C)O2)Oc2ccc(cc2Cl)[C@H]1O [VAN] is ____.
Key: 4
